# Tested on: breast cancer cells (MCF7)
# assay explanation: Cytotoxicity by MTT analysis, MCF7
# Type: cell-based
# condition details: Homo sapiens
attribute measured: IC50

Reported breast cancer cells (MCF7) IC50 for item O=C(CCc1ccco1)Nc1ncc(-c2ccc(F)cc2)s1 [HF-154] was ~0.3 nM
